test: Clearance in mouse at 5 umol/kg, iv administered as bolus dose in 20 to 30% DMA in PBS; type: ADME, organism-based; conditions: in vivo
Assign labels as follows, please: fulfilled for clearance below 80 mL/min/kg; not fulfilled for clearance equal to or exceeding 80 mL/min/kg.

Answered examples (4):
1. C[C@@H](Nc1ccc(F)c(F)c1)c1cc(C(=O)N(C)C)cc2c(=O)cc(N3CCOCC3)oc12 : not fulfilled
2. C[C@H](c1cc(C(=O)N(C)C)cc2c(=O)cc(N3CCOCC3)oc12)N(C)c1cc(F)cc(F)c1 : fulfilled
3. C[C@H]1CN(c2cc(=O)c3cc(C(=O)N(C)C)cc([C@@H](C)Nc4cc(F)cc(F)c4)c3o2)CCO1 : fulfilled
4. C[C@@H](Nc1cc(F)cc(F)c1F)c1cc(C(=O)N(C)C)cc2c(=O)cc(N3CCOCC3)oc12 : not fulfilled

Input: Threshold test, clearance < 80 mL/min/kg: C[C@@H](Nc1cc(F)cc(F)c1)c1cc(C(=O)N(C)C)cc2c(=O)cc(N3CCOCC3)oc12
Output: fulfilled

Input: Threshold test, clearance < 80 mL/min/kg: C[C@@H](Nc1cc(F)cc(Cl)c1)c1cc(C(=O)N(C)C)cc2c(=O)cc(N3CCOCC3)oc12
Output: not fulfilled
